This listing pairs compounds with measured Cytotoxicity in % inhibition at 50 μg mL^−1.
Test system: RAW 264.7 cells
Details: RAW 264.7 cell line, MTT assay, 50 μg mL^−1, 48 h incubation
Express the result in % but write the number alone.

Below: 4 compounds and their reported Cytotoxicity in % inhibition at 50 μg mL^−1.
[[record]]
compound = "COc1ccc(-n2nnc3c2CCC2(C=Cc4cc(Cl)ccc4O2)C3)cc1 (stereo not shown) [Compound 7i]"
assayed_target = "RAW 264.7 cells"
meas_value = 29.36

[[record]]
compound = "Cc1ccc2c(c1)C=CC1(CCc3c(nnn3-c3ccccc3)C1)O2 (stereo not shown) [Compound 7a]"
assayed_target = "RAW 264.7 cells"
meas_value = 30.23

[[record]]
compound = "COc1ccc(-n2nnc3c2CCC2(C=Cc4cc(C)ccc4O2)C3)cc1 (stereo not shown) [Compound 7d]"
assayed_target = "RAW 264.7 cells"
meas_value = 33.14

[[record]]
compound = "Clc1ccc2c(c1)C=CC1(CCc3c(nnn3-c3ccccc3)C1)O2 (stereo not shown) [Compound 7f]"
assayed_target = "RAW 264.7 cells"
meas_value = 21.41


The measured Cytotoxicity in % inhibition at 50 μg mL^−1 associated with COc1ccc(-n2nnc3c2CCC2(C=Cc4cc(Cl)c(C)cc4O2)C3)cc1 (stereo not shown) [Compound 7n] reads 22.64

The measured Cytotoxicity in % inhibition at 50 μg mL^−1 associated with Cc1cc2c(cc1Cl)C=CC1(CCc3c(nnn3-c3ccccc3)C1)O2 (stereo not shown) [Compound 7k] reads 24.90

The measured Cytotoxicity in % inhibition at 50 μg mL^−1 associated with Cc1cc2c(cc1Cl)C=CC1(CCc3c(nnn3-c3ccc(Cl)cc3)C1)O2 (stereo not shown) [Compound 7m] reads 24.76
